target: human CD33 K52A (human, UniProt P20138 18-364); assay: alanine scan, flow cytometry;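 note: HEK293-T cells transiently expressing single-residue alanine mutants of CD33 (alanine swapped to serine), antibody binding read by fluorescence in duplicate, background-subtracted, expressed relative to wild-type CD33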
Sequence (P20138 18-364 K52A limits assumed): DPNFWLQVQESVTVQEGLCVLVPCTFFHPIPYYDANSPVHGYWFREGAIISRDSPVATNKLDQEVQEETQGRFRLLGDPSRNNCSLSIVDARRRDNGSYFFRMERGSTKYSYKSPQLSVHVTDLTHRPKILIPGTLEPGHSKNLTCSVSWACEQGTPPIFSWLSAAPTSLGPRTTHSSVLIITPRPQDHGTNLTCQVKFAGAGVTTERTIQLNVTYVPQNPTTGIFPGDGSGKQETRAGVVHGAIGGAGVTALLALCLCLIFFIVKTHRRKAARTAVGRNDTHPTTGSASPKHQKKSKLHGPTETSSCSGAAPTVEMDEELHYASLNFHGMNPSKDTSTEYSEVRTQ
quantity: Mean % WT Binding (% WT)
A number alone suffices; assume % WT.

Please review the entries below; each comes with its answer.
Refmab #3 (antibody, V domains shown, Full-length format is human IgG1 Fc silent (PG-LALA); The alanine scan used IgG or Fab) VH: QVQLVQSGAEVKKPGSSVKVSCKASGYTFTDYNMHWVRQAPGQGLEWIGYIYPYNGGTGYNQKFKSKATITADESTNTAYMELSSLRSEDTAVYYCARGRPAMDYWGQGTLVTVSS VL: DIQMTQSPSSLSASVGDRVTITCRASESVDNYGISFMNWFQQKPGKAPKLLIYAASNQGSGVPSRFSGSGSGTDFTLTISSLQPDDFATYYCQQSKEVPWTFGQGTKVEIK    80.3
Refmab #1 (antibody, V domains shown, Full-length format is human IgG1 (Absolute Antibody Ab00283-10.0); The alanine scan used IgG or Fab; also called hP67.6) VH: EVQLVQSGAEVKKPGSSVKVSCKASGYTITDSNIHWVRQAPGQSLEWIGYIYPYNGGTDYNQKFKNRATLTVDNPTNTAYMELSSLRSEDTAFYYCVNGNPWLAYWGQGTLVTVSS VL: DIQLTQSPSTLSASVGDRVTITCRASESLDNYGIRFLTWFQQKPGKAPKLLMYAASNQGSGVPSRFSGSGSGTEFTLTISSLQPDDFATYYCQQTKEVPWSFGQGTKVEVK    84.2
Refmab #4 (antibody, V domains shown, Full-length format is human IgG1 Fc silent (PG-LALA); The alanine scan used IgG or Fab) VH: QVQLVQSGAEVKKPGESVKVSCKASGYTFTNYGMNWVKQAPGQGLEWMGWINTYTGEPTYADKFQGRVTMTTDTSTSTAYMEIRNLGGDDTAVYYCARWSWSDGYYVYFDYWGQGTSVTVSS VL: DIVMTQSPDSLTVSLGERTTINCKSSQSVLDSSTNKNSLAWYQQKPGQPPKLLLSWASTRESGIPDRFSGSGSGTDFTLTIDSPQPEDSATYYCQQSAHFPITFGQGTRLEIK    9.8

Asked: Query: Mean % WT Binding; subject: Refmab #2 (antibody, V domains shown, Full-length format is human IgG1 Fc silent (PG-LALA); The alanine scan used IgG or Fab) VH: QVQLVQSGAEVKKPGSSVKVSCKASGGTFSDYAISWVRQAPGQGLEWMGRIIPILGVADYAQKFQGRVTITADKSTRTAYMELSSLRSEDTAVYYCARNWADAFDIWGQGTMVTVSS VL: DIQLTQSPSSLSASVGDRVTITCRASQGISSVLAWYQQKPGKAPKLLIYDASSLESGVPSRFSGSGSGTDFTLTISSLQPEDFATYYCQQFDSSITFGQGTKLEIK
Given back: 94.9
